log10 Ki tested on UniProt P07451: recorded values
Sequence (P07451 whole entry): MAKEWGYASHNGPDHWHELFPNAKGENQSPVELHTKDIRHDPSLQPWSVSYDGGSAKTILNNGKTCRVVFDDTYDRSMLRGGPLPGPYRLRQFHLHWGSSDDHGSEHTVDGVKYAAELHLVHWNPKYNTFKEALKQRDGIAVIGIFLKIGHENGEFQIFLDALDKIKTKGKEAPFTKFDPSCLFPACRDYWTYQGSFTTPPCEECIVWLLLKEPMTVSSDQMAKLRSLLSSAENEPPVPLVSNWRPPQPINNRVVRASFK
Quick note: numbers are log10 of Ki, with µM as the unit.

Reference set, count: 5
> print(dat)
                                   compound    assay.target  endpoint  observed.measurement
1  Cc1ccc(S(N)(=O)=O)cc1 [P-TOLUENESULFONAMIDE]  UniProt P07451  log10 Ki                  0.90
2          Nc1nccc(Nc2ccc(S(N)(=O)=O)cc2)n1  UniProt P07451  log10 Ki                  3.42
3  Nc1ccc(S(=O)(=O)NCCc2ccc(S(N)(=O)=O)cc2)cc1  UniProt P07451  log10 Ki                  2.15
4         NCc1ccc(S(N)(=O)=O)cc1 [MAFENIDE]  UniProt P07451  log10 Ki                  2.83
5  Cc1ccc(-c2cc(C(F)(F)F)nn2-c2ccc(S(N)(=O)=O)cc2)cc1 [CELECOXIB]  UniProt P07451  log10 Ki                  2.19

Next, consider the following compound.
Any idea what log10 Ki was measured for NS(=O)(=O)c1ccc(C(=O)O)cc1 [CARZENIDE] ?
1.05
